The measured values listed here are drawn from patent US5834493A.

Molecular target: 5-HT2 receptors (Rattus norvegicus)
Sequence (P14842 whole entry): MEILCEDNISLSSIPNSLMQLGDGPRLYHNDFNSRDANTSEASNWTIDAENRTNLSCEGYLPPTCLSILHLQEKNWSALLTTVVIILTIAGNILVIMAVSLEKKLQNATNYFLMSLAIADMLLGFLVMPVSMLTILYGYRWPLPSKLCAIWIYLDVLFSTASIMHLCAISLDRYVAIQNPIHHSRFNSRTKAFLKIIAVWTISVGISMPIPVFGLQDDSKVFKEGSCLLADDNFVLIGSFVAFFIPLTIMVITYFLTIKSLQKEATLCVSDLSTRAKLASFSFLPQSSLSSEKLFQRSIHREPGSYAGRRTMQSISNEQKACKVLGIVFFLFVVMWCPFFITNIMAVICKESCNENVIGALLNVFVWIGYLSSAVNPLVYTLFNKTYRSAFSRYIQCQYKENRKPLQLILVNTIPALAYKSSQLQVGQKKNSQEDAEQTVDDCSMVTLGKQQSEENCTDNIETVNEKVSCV
Checkbox rule: Ki lower than 20 nM = 1 (yes); Ki not lower than 20 nM = 0 (no).

- smiles str: "COc1ccc2[nH]cc(CC3=CCCN(CCc4ccc(N)cc4)C3)c2c1"
  assayed system: "5-HT2 receptors (Rattus norvegicus)"
  label: "0 (no)"
- smiles str: "COc1ccc2[nH]cc(CC3=CCCN(CCCC(=O)c4cccs4)C3)c2c1"
  assayed system: "5-HT2 receptors (Rattus norvegicus)"
  label: "1 (yes)"
- smiles str: "COc1ccc2[nH]cc(CC3=CCCN(CCCc4ccc(F)cc4)C3)c2c1"
  assayed system: "5-HT2 receptors (Rattus norvegicus)"
  label: "1 (yes)"
- smiles str: "COc1ccc2[nH]cc(CC3=CCCN(CCCC(=O)c4ccc(F)cc4)C3)c2c1"
  assayed system: "5-HT2 receptors (Rattus norvegicus)"
  label: "1 (yes)"
- smiles str: "COc1ccc2[nH]cc(CC3=CCCN(CCCCc4ccc(F)cc4)C3)c2c1"
  assayed system: "5-HT2 receptors (Rattus norvegicus)"
  label: "0 (no)"
- smiles str: "COc1ccc2[nH]cc(CC3=CCCN(CCOc4ccc(F)cc4)C3)c2c1"
  assayed system: "5-HT2 receptors (Rattus norvegicus)"
  label: "0 (no)"

====

Target: 5-HT1A receptors (Rattus norvegicus, UniProt P19327)
Sequence (P19327 1-422): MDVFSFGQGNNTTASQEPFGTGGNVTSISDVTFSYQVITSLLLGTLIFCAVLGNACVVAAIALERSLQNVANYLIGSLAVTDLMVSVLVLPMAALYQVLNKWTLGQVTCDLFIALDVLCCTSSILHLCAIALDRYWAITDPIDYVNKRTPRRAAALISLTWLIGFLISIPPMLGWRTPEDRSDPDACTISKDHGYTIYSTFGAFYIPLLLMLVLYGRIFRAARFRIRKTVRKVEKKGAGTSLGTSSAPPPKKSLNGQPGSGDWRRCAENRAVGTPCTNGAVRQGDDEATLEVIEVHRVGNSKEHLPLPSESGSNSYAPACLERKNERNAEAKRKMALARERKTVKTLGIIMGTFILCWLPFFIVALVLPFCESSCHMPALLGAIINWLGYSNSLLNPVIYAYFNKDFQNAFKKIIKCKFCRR
observable: Ki (nM)

- smiles str: "COc1ccc2[nH]cc(CC3=CCCN(CCNC(=O)c4cccs4)C3)c2c1"
  assayed system: "5-HT1A receptors (Rattus norvegicus, UniProt P19327)"
  uom: "nM"
  numeric value: 1
- smiles str: "COc1ccc2[nH]cc(CC3=CCCN(CCc4ccc(N)cc4)C3)c2c1"
  assayed system: "5-HT1A receptors (Rattus norvegicus, UniProt P19327)"
  uom: "nM"
  numeric value: 100
- smiles str: "COc1ccc2[nH]cc(CC3=CCCN(CCCC(=O)c4ccc(F)cc4)C3)c2c1"
  assayed system: "5-HT1A receptors (Rattus norvegicus, UniProt P19327)"
  uom: "nM"
  numeric value: 30
- smiles str: "COc1ccc2[nH]cc(CC3=CCCN(CCCC(=O)c4cccs4)C3)c2c1"
  assayed system: "5-HT1A receptors (Rattus norvegicus, UniProt P19327)"
  uom: "nM"
  numeric value: 30
- smiles str: "COc1ccc2[nH]cc(CC3=CCCN(CCCCc4ccc(F)cc4)C3)c2c1"
  assayed system: "5-HT1A receptors (Rattus norvegicus, UniProt P19327)"
  uom: "nM"
  numeric value: 80
- smiles str: "COc1ccc2[nH]cc(CC3=CCCN(CCNC(=O)c4ccc(F)cc4)C3)c2c1"
  assayed system: "5-HT1A receptors (Rattus norvegicus, UniProt P19327)"
  uom: "nM"
  numeric value: 1
- smiles str: "COc1ccc2[nH]cc(CC3=CCCN(CCCc4ccc(F)cc4)C3)c2c1"
  assayed system: "5-HT1A receptors (Rattus norvegicus, UniProt P19327)"
  uom: "nM"
  numeric value: 10
- smiles str: "COc1ccc2[nH]cc(CC3=CCCN(CCC(=O)c4ccc(F)cc4)C3)c2c1"
  assayed system: "5-HT1A receptors (Rattus norvegicus, UniProt P19327)"
  uom: "nM"
  numeric value: 30
- smiles str: "COc1ccc2[nH]cc(CC3=CCCN(C)C3)c2c1"
  assayed system: "5-HT1A receptors (Rattus norvegicus, UniProt P19327)"
  uom: "nM"
  numeric value: 35
- smiles str: "COc1ccc2[nH]cc(CC3=CCCN(CCOc4ccc(F)cc4)C3)c2c1"
  assayed system: "5-HT1A receptors (Rattus norvegicus, UniProt P19327)"
  uom: "nM"
  numeric value: 10
